System: normal human ectocervical epithelial cells
assay_procedure: cells
Type: cell-based
details: Homo sapiens, Epithelial cell, 24 h, read-out: Ectocervical cells IC50
pIC50: −log10 of the molar value.
attribute_measured: pIC50

Please look up its pIC50: COC(=O)C(C)NP(=O)(OCC1OC(N2C(=O)NC(=O)C(C)(Br)C2OC)CC1N=[N+]=[N-])Oc1ccc(Br)cc1 (stereo not shown)
< 3.00

====

Tested on: HIV-1
assay_procedure: Anti-HIV-1 activity, p24 antigen assay in infected PBMC (Example 1)
Assay type: cell-based
details: Human immunodeficiency virus 1, PBMC, 168 h; human peripheral blood mononuclear cells, 7 days; read-out: IC50, HIV-1 replication (p24 antigen)
attribute_measured: pIC50
Keep it numeric: pIC50 is minus log10 of the concentration in mol/L.

Any idea what pIC50 came out for CCCCCCCCCc1ccc(OCCOCCOCCOCCOCCOCCOCCOCCOCCO)cc1 [Compound N-9, nonoxynol-9, reference compound] on HIV-1?
5.66

====

System: human sperm
assay_procedure: Sperm motility assay by CASA (Example 1)
Type: cell-based
details: Homo sapiens, Sperm; 3 hours incubation at 37° C., CASA; read-out: EC50, sperm motility
Task for the reader: assign each of the following molecules its reported pEC50.
Keep it numeric: pEC50 is minus log10 of the concentration in mol/L.

Please look up its pEC50: CCCCCCCCCc1ccc(OCCOCCOCCOCCOCCOCCOCCOCCOCCO)cc1 [Compound N-9, nonoxynol-9, reference compound]
4.09

Please look up its pEC50: COC1N([C@H]2C[C@H](N)[C@@H](CO)O2)C(=O)NC(=O)C1(C)Br (some centres unmarked) [WHI-03]
4.92

====

Test system: normal human endocervical epithelial cells
assay_procedure: cells
Assay type: cell-based
details: Homo sapiens, Epithelial cell, 24 h, read-out: Endocervical cells IC50
attribute_measured: pIC50
Keep it numeric: pIC50 is minus log10 of the concentration in mol/L.

Please look up its pIC50: COC(=O)C(C)NP(=O)(OCC1OC(N2C(=O)NC(=O)C(C)(Br)C2OC)CC1N=[N+]=[N-])Oc1ccc(Br)cc1 (stereo not shown)
3.51
